Each recorded value in this set is attributed to paper PMC8809517.

Molecular target: T1, GFP-9S library array, motif 4 ND N98T;D124V (synthetic construct, N98T;D124V)
T1 chain: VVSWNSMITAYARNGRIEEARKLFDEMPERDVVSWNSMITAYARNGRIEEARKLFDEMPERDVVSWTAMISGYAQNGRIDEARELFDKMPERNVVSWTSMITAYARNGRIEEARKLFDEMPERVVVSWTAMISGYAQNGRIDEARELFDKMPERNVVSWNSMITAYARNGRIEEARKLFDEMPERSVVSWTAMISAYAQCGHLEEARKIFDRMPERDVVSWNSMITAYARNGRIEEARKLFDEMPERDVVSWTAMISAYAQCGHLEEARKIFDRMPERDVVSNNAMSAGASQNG
Assay: high-throughput RNA pulldown from lysate on Ni-NTA beads; HRP: 50 mM Tris pH 8, 150 mM NaCl, 1 mM beta-mercaptoethanol, 50 ug/ml BSA, 3 ug/ml yeast RNA, 0.5% heparin; ITC and FP: Tris pH 8, 200 mM KCl, 5% glycerol; MST: 50 mM Tris pH 8, 200 mM NaCl, 1 mM DTT, BSA, heparin, 0.05% Tween 20
Conditions: tags: N-terminal His-eGFP; label: 5' Cy5
Quantity name: Kd (nM)
One number for each entry, in nM.

>>> df
                           binder  recorded_value
0  AUUACACGUGA (ssRNA) [Cy5-rpoA]            95.8

Okay, now this binder:
Incoming: I'd like to know its Kd. The binder in question is AUUAGACGUGA (ssRNA) [Cy5-rpoA-G]
Outgoing: 85.6
